# SYSTEM_TESTED: T1, TNFR1 (Homo sapiens, UniProt P19438)
# T1 chain: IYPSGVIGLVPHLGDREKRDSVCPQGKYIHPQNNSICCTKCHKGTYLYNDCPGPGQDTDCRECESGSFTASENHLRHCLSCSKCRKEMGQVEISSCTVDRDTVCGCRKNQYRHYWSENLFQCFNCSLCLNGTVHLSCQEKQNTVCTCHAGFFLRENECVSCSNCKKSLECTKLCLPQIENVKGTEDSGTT
# METHOD: yeast display SC50
Overview of recorded apparent Kd (screen) for various binders
MEASUREMENT_LABEL: apparent Kd (screen) (nM)

V71P (designed binder) MTLQELLREEALRRAEAEAFRYALELLAEKFPEQKEYLLDLAEEIESQIRSLSGVDVEDVRKFLDKEWAWPKELLAEHPAELAEVEAARAARLAELRAEVEAKVAA = 12.5
Q4Y (designed binder) MTLYELLREEALRRAEAEAFRYALELLAEKFPEQKEYLLDLAEEIESQIRSLSGVDVEDVRKFLDKEWAWVKELLAEHPAELAEVEAARAARLAELRAEVEAKVAA = 0.49
F20Y (designed binder) MTLQELLREEALRRAEAEAYRYALELLAEKFPEQKEYLLDLAEEIESQIRSLSGVDVEDVRKFLDKEWAWVKELLAEHPAELAEVEAARAARLAELRAEVEAKVAA = 2.05
E46G (designed binder) MTLQELLREEALRRAEAEAFRYALELLAEKFPEQKEYLLDLAEEIGSQIRSLSGVDVEDVRKFLDKEWAWVKELLAEHPAELAEVEAARAARLAELRAEVEAKVAA = 0.49

Cited source for all entries: paper PMC12416549
